procedureDetails: blockers of RIG-like receptor reporter activation – cell-based, Sendai virus stimulus, luciferase, 10K MLSCN set, TLR/RLR signaling modifier project, primary screen (AID 602276);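 note: firefly luciferase from ISG56 promoter only with Renilla not read in this screen; 0% = Sendai virus plus DMSO and 100% = medium plus DMSO without virus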
runConditions: HEK293 RL24 IRF3 luciferase reporter, at 10 µM, hits give high values
# inhibition listing for each entry below
valueKind: inhibition (%)

- compound: "CC(=O)NC(=O)NC1CSCC1OC(C)=O (stereo unspecified)"
  valueKind: "inhibition"
  quantityUnit: "%"
  value: 11
- compound: "COc1ccc(C(=O)N2CCN(c3nc4cc(C)ccc4cc3C#N)CC2)c(OC)c1"
  valueKind: "inhibition"
  quantityUnit: "%"
  value: 14.5
- compound: "CCOc1ccccc1NC(=O)CC1Nc2cc(C)c(C)cc2NC1=O (stereo unspecified)"
  valueKind: "inhibition"
  quantityUnit: "%"
  value: 14.6
- compound: "CC(=O)Nc1c(O)nc(SCC(=O)Nc2nnc(CC(C)C)s2)[nH]c1=O"
  valueKind: "inhibition"
  quantityUnit: "%"
  value: -9.44
- compound: "CCCSC1=C(C#N)C(c2cc(OC)ccc2OC)CC(=O)N1 (stereo unspecified)"
  valueKind: "inhibition"
  quantityUnit: "%"
  value: 18.1
- compound: "CC(=O)Nc1ccc(OC(=O)c2cccs2)cc1"
  valueKind: "inhibition"
  quantityUnit: "%"
  value: 8.66
- compound: "COc1ccc(Cl)cc1Nc1nc(NCCO)nc(N2CCCC2)n1"
  valueKind: "inhibition"
  quantityUnit: "%"
  value: 11.5
- compound: "CCCN1C2CCCC1CC(NC(=O)c1ccccc1F)C2 (stereo unspecified)"
  valueKind: "inhibition"
  quantityUnit: "%"
  value: 10.6
- compound: "CN(CC(=O)N1CCCc2c1c(=O)oc1ccc(O)cc21)Cc1ccccc1"
  valueKind: "inhibition"
  quantityUnit: "%"
  value: 11.5
- compound: "CCOC(=O)c1cc2cc(F)ccc2nc1C"
  valueKind: "inhibition"
  quantityUnit: "%"
  value: -17.9
- compound: "COc1ccc(-c2nc(C(N)=O)c3[nH]c(=O)n(-c4cccc(Cl)c4)c3n2)cc1OC"
  valueKind: "inhibition"
  quantityUnit: "%"
  value: 3.83

---

procedureDetails: endothelial E-selectin expression blockers – imaging, HUVEC, immunofluorescence, MLSMR starter and 10KST1 sets, primary screen (AID 487);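 note: signal is fraction of cell area covered by stained E-selectin grains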
runConditions: HUVEC TNFalpha-induced E-selectin immunofluorescence imaging, at 2 µM; hits give high values

- molecule: "CCCCC(=O)Nc1ccc(NC(=O)C2CC2)nc1"
  inhibition [%]: 22.7
- molecule: "COc1ccc(N2CCN(c3ccc(NC(=O)C4CCCCC4)cc3C#N)CC2)cc1"
  inhibition [%]: -14.3
- molecule: "O=C(O)c1cccc(NC(=O)C23CC4CC(C2)CC(n2cnc(Cl)n2)(C4)C3)c1"
  inhibition [%]: -14.3
- molecule: "CC1(C)CC(=O)c2cnc(NC(=O)CCc3ccccc3)nc2C1"
  inhibition [%]: -24.7
- molecule: "CCCc1nnc(SCC(=O)N2CCOCC2)n1Cc1ccco1"
  inhibition [%]: -0.5
- molecule: "CC1CCCCN1C(=O)Cn1nnc(-c2cccnc2)n1 (stereo unspecified)"
  inhibition [%]: -23.4
- molecule: "CCOC(=O)CSc1nc2c(c(-c3ccc(C)o3)c1C#N)CCCC2"
  inhibition [%]: -63.3
- molecule: "CCOC(=O)N1CCN(C(=O)c2csc3c2CCCCC3)CC1"
  inhibition [%]: -86
- molecule: "CC(C)(C)NC(=O)CN(C(=O)CS(=O)CC(=O)Nc1ccc(F)cc1)c1ccc(Cl)cc1 (stereo unspecified)"
  inhibition [%]: -9.8
- molecule: "CN(C)c1ccc(NC(=O)Cn2cc3c(n2)CCCC3)cc1"
  inhibition [%]: -27.2
- molecule: "O=C(NCc1ccco1)c1csc(Nc2ccccc2Cl)n1"
  inhibition [%]: -144
